target: RIPK2 (human); assay: KINOMEscan competition binding; conditions: compound 10.0 µM
Please respond with reported kinase still bound, per cent of control for every item in the list.
Return type: number; implicit unit %.

For O=C(Nc1cccc(Nc2ncc(Br)c(NCCc3cnc[nH]3)n2)c1)N1CCCC1 the compound record lists kinase still bound, per cent of control as 58

For COc1cc(C(=O)N2CCC(N3CCN(C)CC3)CC2)ccc1Nc1ncc2c(n1)N(C)c1ccccc1C(=O)N2C the compound record lists kinase still bound, per cent of control as 100

For O=C1NC(=O)/C(=C/c2ccc3nccc(-c4ccncc4)c3c2)S1 the compound record lists kinase still bound, per cent of control as 30

For COc1cc2ncnc(-n3nc(-c4ccccn4)nc3N)c2cc1OC the compound record lists kinase still bound, per cent of control as 2.6

For Cc1n[nH]c2ccc(-c3cncc(OC[C@@H](N)Cc4c[nH]c5ccccc45)c3)cc12 the compound record lists kinase still bound, per cent of control as 100

For CCN1CCN(C(=O)Cc2ccc(Nc3ncc(F)c(Nc4ccc(C(=O)Nc5ccccc5Cl)cc4)n3)cc2)CC1 the compound record lists kinase still bound, per cent of control as 19

For NC(=O)Nc1cc(-c2cccc(F)c2)sc1C(=O)N[C@@H]1CCCNC1 the compound record lists kinase still bound, per cent of control as 40

----------
target: MAPK7 (human) (UniProt Q13164); experiment: KINOMEscan competition binding; conditions: compound 10.0 µM
Sequence (Q13164 whole entry, looked up): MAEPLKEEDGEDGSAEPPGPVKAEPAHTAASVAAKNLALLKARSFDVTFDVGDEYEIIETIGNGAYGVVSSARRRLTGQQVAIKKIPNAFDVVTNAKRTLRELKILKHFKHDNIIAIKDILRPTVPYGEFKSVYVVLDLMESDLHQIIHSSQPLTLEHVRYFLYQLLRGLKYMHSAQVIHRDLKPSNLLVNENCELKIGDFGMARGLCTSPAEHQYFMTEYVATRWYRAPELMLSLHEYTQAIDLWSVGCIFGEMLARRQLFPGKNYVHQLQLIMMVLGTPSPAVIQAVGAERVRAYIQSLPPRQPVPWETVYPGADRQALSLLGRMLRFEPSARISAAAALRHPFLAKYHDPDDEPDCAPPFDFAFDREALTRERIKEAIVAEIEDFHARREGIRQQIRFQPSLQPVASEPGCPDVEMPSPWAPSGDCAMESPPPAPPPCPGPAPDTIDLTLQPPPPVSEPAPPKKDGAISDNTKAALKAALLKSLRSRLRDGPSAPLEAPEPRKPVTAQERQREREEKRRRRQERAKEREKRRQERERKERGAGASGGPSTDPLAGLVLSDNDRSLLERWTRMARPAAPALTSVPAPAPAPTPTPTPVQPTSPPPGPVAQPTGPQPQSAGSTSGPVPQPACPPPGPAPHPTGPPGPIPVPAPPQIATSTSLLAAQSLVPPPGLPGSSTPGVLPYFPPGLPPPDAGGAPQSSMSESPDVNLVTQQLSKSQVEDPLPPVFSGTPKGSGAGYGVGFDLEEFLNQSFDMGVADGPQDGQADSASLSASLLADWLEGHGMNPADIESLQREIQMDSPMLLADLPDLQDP
Please respond with reported kinase still bound, per cent of control for every item in the list.
Return type: number; implicit unit %.

For COc1cc2ncn(-c3cc(OCc4ccccc4C(F)(F)F)c(C(N)=O)s3)c2cc1OC the compound record lists kinase still bound, per cent of control as 100

For C=CC(=O)Nc1ccc(CN(C(=O)Nc2c(Cl)c(OC)cc(OC)c2Cl)c2cc(Nc3ccc(N4CCN(C)CC4)cc3)ncn2)cc1 the compound record lists kinase still bound, per cent of control as 9.7

For CS(=O)(=O)N1CCN(Cc2cc3nc(-c4cccc5[nH]ncc45)nc(N4CCOCC4)c3s2)CC1 the compound record lists kinase still bound, per cent of control as 100

For CCN(CC)CCCCNc1ncc2cc(-c3cc(OC)cc(OC)c3)c(NC(=O)NC(C)(C)C)nc2n1 the compound record lists kinase still bound, per cent of control as 36

For CN(C)C/C=C/C(=O)Nc1ccc(C(=O)Nc2cccc(Nc3nccc(-c4cccnc4)n3)c2)cc1 the compound record lists kinase still bound, per cent of control as 100

For C=CC(=O)Nc1cc(-n2c(=O)ccc3cnc4ccc(-c5cn[nH]c5)cc4c32)ccc1C the compound record lists kinase still bound, per cent of control as 98

For COc1ccc(N(C(=O)Oc2c(C)cccc2C)c2ccnc(Nc3ccc(N4CCN(C)CC4)cc3)n2)c(OC)c1 the compound record lists kinase still bound, per cent of control as 39

For COCC(=O)NC/C=C/c1ccc2ncnc(Nc3ccc(Oc4ccc(C)nc4)c(C)c3)c2c1 the compound record lists kinase still bound, per cent of control as 100

For Cc1n[nH]c2ccc(-c3cncc(OC[C@@H](N)Cc4c[nH]c5ccccc45)c3)cc12 the compound record lists kinase still bound, per cent of control as 100

For COc1cc(N2CCN(C)CC2)ccc1Nc1ncc2c(n1)N(C)c1ccccc1C(=O)N2C the compound record lists kinase still bound, per cent of control as 0

For C[C@@H](Oc1cc(-c2cnn(C3CCNCC3)c2)cnc1N)c1c(Cl)ccc(F)c1Cl the compound record lists kinase still bound, per cent of control as 0.1

For NC(=O)Nc1cc(-c2cccc(F)c2)sc1C(=O)N[C@@H]1CCCNC1 the compound record lists kinase still bound, per cent of control as 80

----------
system: RET (human), P07949 [M918T]; test: KINOMEscan competition binding; details: compound 10.0 µM
Sequence (P07949 whole entry M918T, looked up): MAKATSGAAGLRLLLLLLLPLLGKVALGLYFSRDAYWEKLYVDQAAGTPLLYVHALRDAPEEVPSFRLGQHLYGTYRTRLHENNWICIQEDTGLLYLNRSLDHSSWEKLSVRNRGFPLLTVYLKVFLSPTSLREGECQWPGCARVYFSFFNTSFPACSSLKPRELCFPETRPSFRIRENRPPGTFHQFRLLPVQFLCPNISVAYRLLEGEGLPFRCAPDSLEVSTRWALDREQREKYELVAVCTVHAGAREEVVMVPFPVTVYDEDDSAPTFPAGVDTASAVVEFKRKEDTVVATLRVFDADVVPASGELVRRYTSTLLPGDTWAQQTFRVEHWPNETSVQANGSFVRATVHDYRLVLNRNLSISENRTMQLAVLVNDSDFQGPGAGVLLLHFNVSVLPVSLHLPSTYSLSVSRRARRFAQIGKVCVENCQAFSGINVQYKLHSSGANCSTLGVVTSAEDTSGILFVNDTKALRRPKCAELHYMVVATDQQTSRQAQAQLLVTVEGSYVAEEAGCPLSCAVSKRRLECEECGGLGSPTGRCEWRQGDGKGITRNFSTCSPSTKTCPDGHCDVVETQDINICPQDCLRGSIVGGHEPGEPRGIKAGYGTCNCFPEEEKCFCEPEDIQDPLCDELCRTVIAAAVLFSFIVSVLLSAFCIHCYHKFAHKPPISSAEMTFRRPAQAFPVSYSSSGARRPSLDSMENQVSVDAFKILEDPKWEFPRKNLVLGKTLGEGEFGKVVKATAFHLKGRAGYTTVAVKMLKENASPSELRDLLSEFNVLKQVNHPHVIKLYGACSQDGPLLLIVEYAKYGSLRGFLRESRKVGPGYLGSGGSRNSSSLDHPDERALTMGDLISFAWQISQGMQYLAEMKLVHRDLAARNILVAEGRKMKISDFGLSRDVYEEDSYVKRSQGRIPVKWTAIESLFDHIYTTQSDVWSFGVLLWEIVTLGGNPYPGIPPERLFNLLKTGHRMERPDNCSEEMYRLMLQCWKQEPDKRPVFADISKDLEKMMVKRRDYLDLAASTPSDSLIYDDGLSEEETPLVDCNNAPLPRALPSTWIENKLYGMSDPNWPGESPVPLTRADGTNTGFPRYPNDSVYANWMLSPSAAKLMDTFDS
OBSERVATION_TYPE: kinase still bound, per cent of control (%)
Return type: number; implicit unit %.

For O=c1[nH]c2ccccc2n1C1CCN(Cc2ccc(-c3nc4cc5[nH]cnc5cc4nc3-c3ccccc3)cc2)CC1 the compound record lists kinase still bound, per cent of control as 79

For O=C(NOC[C@H](O)CO)c1ccc(F)c(F)c1Nc1ccc(I)cc1F the compound record lists kinase still bound, per cent of control as 79

For N#CCNC(=O)c1ccc(-c2ccnc(Nc3ccc(N4CCOCC4)cc3)n2)cc1 the compound record lists kinase still bound, per cent of control as 78

----------
biological target: EIF2AK2 (human); experiment: KINOMEscan competition binding; settings: compound 10.0 µM
OBSERVATION_TYPE: kinase still bound, per cent of control (%)
Return type: number; implicit unit %.

Measured kinase still bound, per cent of control (EIF2AK2 (human)), entry O=C1NC(=O)/C(=C/c2ccc3nccc(-c4ccncc4)c3c2)S1 : 20

Measured kinase still bound, per cent of control (EIF2AK2 (human)), entry CNC(=O)c1ccc(Nc2cc(Nc3ccccc3S(=O)(=O)C(C)C)c3cc[nH]c3n2)nc1 : 100

Measured kinase still bound, per cent of control (EIF2AK2 (human)), entry O=C(Nc1cccc(Nc2ncc(Br)c(NCCc3cnc[nH]3)n2)c1)N1CCCC1 : 31

Measured kinase still bound, per cent of control (EIF2AK2 (human)), entry C=CC(=O)Nc1cc(-n2c(=O)ccc3cnc4ccc(-c5cn[nH]c5)cc4c32)ccc1C : 94

Measured kinase still bound, per cent of control (EIF2AK2 (human)), entry O=c1cc(N2CCOCC2)oc2c(-c3cccc4c3sc3ccccc34)cccc12 : 72

----------
biological target: PDGFRA (human); assay: KINOMEscan competition binding; conditions: compound 10.0 µM
// returns not met unless kinase still bound, per cent of control is strictly below 10%, in which case met

Lookup: Below 10% on kinase still bound, per cent of control? Entry C=CC(=O)Nc1cc(-n2c(=O)ccc3cnc4ccc(-c5cn[nH]c5)cc4c32)ccc1C
Found: not met

Lookup: Below 10% on kinase still bound, per cent of control? Entry COc1cc2ncnc(-n3nc(-c4ccccn4)nc3N)c2cc1OC
Found: not met

Lookup: Below 10% on kinase still bound, per cent of control? Entry CCN(CC)CCCCNc1ncc2cc(-c3cc(OC)cc(OC)c3)c(NC(=O)NC(C)(C)C)nc2n1
Found: not met

Lookup: Below 10% on kinase still bound, per cent of control? Entry COc1cc(N2CCN(C)CC2)ccc1Nc1ncc2c(n1)N(C)c1ccccc1C(=O)N2C
Found: not met

Lookup: Below 10% on kinase still bound, per cent of control? Entry CN(C)C/C=C/C(=O)Nc1ccc(C(=O)Nc2cccc(Nc3nccc(-c4cccnc4)n3)c2)cc1
Found: met

Lookup: Below 10% on kinase still bound, per cent of control? Entry O=c1cc(N2CCOCC2)oc2c(-c3cccc4c3sc3ccccc34)cccc12
Found: not met

Lookup: Below 10% on kinase still bound, per cent of control? Entry COc1cc2ncn(-c3cc(OCc4ccccc4C(F)(F)F)c(C(N)=O)s3)c2cc1OC
Found: not met

Lookup: Below 10% on kinase still bound, per cent of control? Entry CS(=O)(=O)N1CCN(Cc2cc3nc(-c4cccc5[nH]ncc45)nc(N4CCOCC4)c3s2)CC1
Found: met

Lookup: Below 10% on kinase still bound, per cent of control? Entry C=CC(=O)Nc1ccc(CN(C(=O)Nc2c(Cl)c(OC)cc(OC)c2Cl)c2cc(Nc3ccc(N4CCN(C)CC4)cc3)ncn2)cc1
Found: met

Lookup: Below 10% on kinase still bound, per cent of control? Entry COCC(=O)NC/C=C/c1ccc2ncnc(Nc3ccc(Oc4ccc(C)nc4)c(C)c3)c2c1
Found: not met

Lookup: Below 10% on kinase still bound, per cent of control? Entry CCN1CCN(C(=O)Cc2ccc(Nc3ncc(F)c(Nc4ccc(C(=O)Nc5ccccc5Cl)cc4)n3)cc2)CC1
Found: not met

----------
molecular target: MAPK9 (human) (UniProt P45984); assay: KINOMEscan competition binding; conditions: compound 10.0 µM
Sequence (P45984 whole entry, looked up): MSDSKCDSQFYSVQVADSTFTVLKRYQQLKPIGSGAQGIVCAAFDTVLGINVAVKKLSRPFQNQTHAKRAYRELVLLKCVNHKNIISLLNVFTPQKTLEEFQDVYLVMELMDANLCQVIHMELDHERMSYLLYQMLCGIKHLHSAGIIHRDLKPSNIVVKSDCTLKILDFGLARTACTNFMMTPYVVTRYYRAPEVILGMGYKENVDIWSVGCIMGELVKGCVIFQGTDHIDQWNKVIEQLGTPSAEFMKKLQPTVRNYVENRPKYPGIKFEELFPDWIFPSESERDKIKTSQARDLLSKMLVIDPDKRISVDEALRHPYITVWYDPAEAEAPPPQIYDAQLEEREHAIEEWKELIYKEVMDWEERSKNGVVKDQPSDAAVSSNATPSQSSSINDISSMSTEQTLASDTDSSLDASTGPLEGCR
Class (by kinase still bound, per cent of control) -- lo: < 40%; med: ≥ 40% and < 90%; hi: ≥ 90%

Lookup: Hello team, could you let me know which band the following compound falls into: COc1cc2ncn(-c3cc(OCc4ccccc4C(F)(F)F)c(C(N)=O)s3)c2cc1OC
Found: med

Lookup: Hello team, could you let me know which band the following compound falls into: NC(=O)Nc1cc(-c2cccc(F)c2)sc1C(=O)N[C@@H]1CCCNC1
Found: lo

Lookup: Hello team, could you let me know which band the following compound falls into: CS(=O)(=O)N1CCN(Cc2cc3nc(-c4cccc5[nH]ncc45)nc(N4CCOCC4)c3s2)CC1
Found: hi

Lookup: Hello team, could you let me know which band the following compound falls into: CCN(CC)CCCCNc1ncc2cc(-c3cc(OC)cc(OC)c3)c(NC(=O)NC(C)(C)C)nc2n1
Found: hi

Lookup: Hello team, could you let me know which band the following compound falls into: CNC(=O)c1cc(Oc2ccc(NC(=O)Nc3ccc(Cl)c(C(F)(F)F)c3)cc2)ccn1
Found: lo

Lookup: Hello team, could you let me know which band the following compound falls into: CCN(CC)CCCCNc1ncc2c(n1)N(C)C(=O)N(c1c(Cl)c(OC)cc(OC)c1Cl)C2
Found: hi

Lookup: Hello team, could you let me know which band the following compound falls into: COc1cc(C(=O)N2CCC(N3CCN(C)CC3)CC2)ccc1Nc1ncc2c(n1)N(C)c1ccccc1C(=O)N2C
Found: hi

Lookup: Hello team, could you let me know which band the following compound falls into: COCC(=O)NC/C=C/c1ccc2ncnc(Nc3ccc(Oc4ccc(C)nc4)c(C)c3)c2c1
Found: med

Lookup: Hello team, could you let me know which band the following compound falls into: O=C(Nc1cccc(Nc2ncc(Br)c(NCCc3cnc[nH]3)n2)c1)N1CCCC1
Found: lo

Lookup: Hello team, could you let me know which band the following compound falls into: COc1ccc(N(C(=O)Oc2c(C)cccc2C)c2ccnc(Nc3ccc(N4CCN(C)CC4)cc3)n2)c(OC)c1
Found: lo

Lookup: Hello team, could you let me know which band the following compound falls into: C=CC(=O)Nc1cc(-n2c(=O)ccc3cnc4ccc(-c5cn[nH]c5)cc4c32)ccc1C
Found: lo

Lookup: Hello team, could you let me know which band the following compound falls into: N#CCNC(=O)c1ccc(-c2ccnc(Nc3ccc(N4CCOCC4)cc3)n2)cc1
Found: lo

Lookup: Hello team, could you let me know which band the following compound falls into: CNC(=O)c1ccc(Nc2cc(Nc3ccccc3S(=O)(=O)C(C)C)c3cc[nH]c3n2)nc1
Found: hi

Lookup: Hello team, could you let me know which band the following compound falls into: COc1cc(N2CCN(C)CC2)ccc1Nc1ncc2c(n1)N(C)c1ccccc1C(=O)N2C
Found: hi

Lookup: Hello team, could you let me know which band the following compound falls into: C[C@@H](Oc1cc(-c2cnn(C3CCNCC3)c2)cnc1N)c1c(Cl)ccc(F)c1Cl
Found: med
